Tested system: T1, 人FGL1-his蛋白(Sinobio;Cat:13484-H08B) (human, UniProt Q08830 23-312)
T1 construct: Bought protein; also called 重组人FGL1-his蛋白; not shown: his tag
T1 sequence (looked up): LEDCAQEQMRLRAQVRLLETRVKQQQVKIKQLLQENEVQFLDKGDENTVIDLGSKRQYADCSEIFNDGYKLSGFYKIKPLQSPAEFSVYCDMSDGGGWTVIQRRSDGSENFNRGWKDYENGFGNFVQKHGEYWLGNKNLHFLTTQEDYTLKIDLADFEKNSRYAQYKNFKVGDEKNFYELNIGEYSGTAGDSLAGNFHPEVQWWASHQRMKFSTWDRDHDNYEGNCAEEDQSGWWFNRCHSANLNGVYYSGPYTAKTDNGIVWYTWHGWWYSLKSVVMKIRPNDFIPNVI
Assay overview: ELISA, plate coated with human FGL1-his
Property: binding result

SH-09 (antibody, human IgG1, V domains shown, Heavy-chain-only antibody from the alpaca immune phage library; expressed in CHO cells; also called 抗体SH-09) VH: QVQLVESGGGLVQPGGSLRLSCTASGFNLDFYTIGWFLQAPGKEREGVSCISNSGGSSVYADSVKGRFTISRDSAKNTVYLQMNSLDPEDTAVYYCAALAGRGCMRSPITTDEYDSWGQGTQVTVSS: binds
SH-04 (antibody, V domains shown, From hybridoma; also called 抗体SH-04; not shown: 轻链恒定区) VH: EVQLQQSGPELEKPGASVKMSCKASGYTFTRYWMHWVKQRPGQGLEWIGMIDPSDSYTSYNQKFKGKATLTVDTSSSTAYMQLSSLTSEDSAVYYCTLRPGLDYWGQGTTLTVSS VL: DIVMTQSQKFMSTSVGDRVSVTCKASQNVGTNVAWYQQKPGQSPKALIYSASYRYSGVPDRFTGSGSGTDFTLTISNVQSEDLAEYFCQQYNSYPLTFGGGTKLEIK: binds
SH-08 (antibody, V domains shown, From the human natural phage display library; also called 抗体SH-08; not shown: 轻链恒定区) VH: EVQLVESGGGLVKPGGSLRLSCAASGFTFSSYSMNWVRQAPGKGLEWVSSISSSSSYIYYADSVKGRFTISRDNAKNSLYLQMNSLRAEDTAVYYCARDFPSPSGGRGFRPTTARGYGMDVWGQGTTVTVSS VL: QSALTQPASVSGSPGQSIIISCTGSKSDIGTYNFVSWYQQHPGKAPNVIIYNVNKRPSGVSDRFSGSKSGNTASLTISGLQAEDEADFYCSSYTSSGTHVFGSGTKVIVL: binds
